// data source = PubChem BioAssay (NCI)

# Tested on: UACC-257 melanoma
# assay remarks: NCI tumour cell line growth inhibition, 48 h
measured parameter: TGI

Some compounds with recorded TGI:
O=C(O)CN1CCN2CCOCCOCCN(CC1)CCN(CC(=O)O)CC2 | > 100 µM
COc1cc(-c2nn(-c3cccc(NC(=O)Nc4cc(C(F)(F)F)cc(C(F)(F)F)c4)c3)cc2-c2ccncc2)ccc1Cl | 2.21 µM
O=C(CC(C(=O)c1ccco1)c1ccsc1)c1ccco1 (centres undefined) | > 100 µM
CN(C)c1ccc(/C=C2\C[C@H]3[C@@H]4CCc5cc(OCCN6CCCC6)ccc5[C@H]4CC[C@]3(C)C2=O)cc1 | 5.35 µM

Please give TGI for each item listed below.
1. Cc1nc2ccc(S(=O)(=O)Nc3ccccc3)cc2c(=O)n1NC(=O)CNc1ccccc1
2. CCC/C(=N/NC(=O)C(N)=O)C(CC)C(=O)CCC(=O)N(Cc1ccccc1)Cc1ccccc1 (centres undefined)
3. FC(F)(Sc1ccccn1)c1nc2ccccc2o1
4. [O-][n+]1onc2c1CCC(=N\O)/C2=N/Nc1ccccc1
5. N[C@@H]1CCCC[C@H]1N.O=C([O-])C(=O)[O-].[Pt+4]
6. Nc1nc(Cl)c2ncn(Cc3ccc(CCl)cc3)c2n1
7. C=C1C(=O)O[C@H]2[C@H]1CC/C(Cn1cc(-c3cc(C(F)(F)F)cc(C(F)(F)F)c3)nn1)=C\CC[C@@]1(C)O[C@@H]21

Response:
1: > 100 µM; 2: > 100 µM; 3: > 100 µM; 4: > 100 µM; 5: > 81.1 µM; 6: 47.9 µM; 7: 2.91 µM

Please give TGI for each item listed below.
1. CC1(c2cccc3ccccc23)OC(=O)c2ccccc21 (centres undefined)
2. Cc1ccc2c(=O)c3cccc(CC(=O)O)c3[nH]c2c1C
3. O=C1NC(=O)C2C(=O)NC(=O)C1C2(c1ccccc1)c1cc[nH]c1 (centres undefined)

Response:
1. 54.5 µM
2. > 100 µM
3. > 100 µM

Please give TGI for each item listed below.
1. CC(C)(C)c1cc(C(C)(C)C)c(SS(=O)(=O)O)c(O)c1O
2. CC(=O)[CH-]C(=O)c1ccccc1.CC(=O)[CH-]C(=O)c1ccccc1.CC(C)CCCC(C)[C@H]1CCC2[C@@H]3CC=C4C[C@@H]([O-])CC[C@]4(C)C3CC[C@@]21C.CC[O-].[Ti+4] (some centres undefined)
3. N#Cc1c(Cl)cccc1Oc1ccc(S(=O)(=O)/N=C(\NN)Nc2ccc(Cl)cc2)cc1
4. CC(=O)OCC(OC(C)=O)C(OC(C)=O)C(OC(C)=O)C(C=NN(C(C)=O)S(=O)(=O)c1ccc(/C=C2\NC(=O)N(C)C2=O)cc1)OC(C)=O (centres undefined)
5. Cc1cc2nc3c4cc(N)ccc4n(CCN(C)C)c3nc2cc1C

Response:
> 100 µM
> 100 µM
72.3 µM
> 100 µM
5.14 µM
